test: rat pharmacokinetics study of Example 4 (oral suspensions); format: in vivo, Sprague Dawley rats; settings: Sprague Dawley, 200 mg/kg oral suspension in vehicle, plasma
property.measured: Cmax (ng/mL)
Dear colleague, please return just the value in ng/mL, with no unit written.

Summary for this molecule, N#Cc1ccnc(N2C(=O)CC[C@H]2C(=O)N(c2cncc(F)c2)[C@H](C(=O)NC2CC(F)(F)C2)c2ccccc2Cl)c1 [Form 2] : Cmax is 1600

----------
experiment: Phase 1 clinical trial: pharmacokinetics after oral administration; assay type: in vivo, human; settings: human, plasma, patients
property.measured: half-life (h)
Unit h implied. Number only.

For this molecule ( N#Cc1ccnc(N2C(=O)CC[C@H]2C(=O)N(c2cncc(F)c2)[C@H](C(=O)NC2CC(F)(F)C2)c2ccccc2Cl)c1 ), measured half-life is 182

----------
assay: solubility in fasted state simulated intestinal fluid (FASSIF); format: physicochemical; settings: pH 6.1, fassif, pH of 6.1 at 4 hours
property.measured: solubility at 4 h

Value of solubility at 4 h reported for the molecule N#Cc1ccnc(N2C(=O)CC[C@H]2C(=O)N(c2cncc(F)c2)[C@H](C(=O)NC2CC(F)(F)C2)c2ccccc2Cl)c1 [Form 2] is ~18 µg/mL

----------
experiment: rat pharmacokinetics study of Example 4 (oral suspensions); assay type: in vivo, Sprague Dawley rats; conditions: Sprague Dawley, 200 mg/kg oral suspension in vehicle, plasma, read-out: AUC0-72 hr
property.measured: AUC(0-t) (ng·h/mL)
Give the number; ng·h/mL is assumed, so skip it.

The value of AUC(0-t) measured for the compound N#Cc1ccnc(N2C(=O)CC[C@H]2C(=O)N(c2cncc(F)c2)[C@H](C(=O)NC2CC(F)(F)C2)c2ccccc2Cl)c1 [Form 2] turned out to be 21700
